# assay protocol: Photophysical property of the compound in MeOH assessed as fluorescence quantum yield under 450 nm photoirradiation with blue light lamp by U-4100 spectrophotometric analysis
# Format: physicochemical
# Design: unit not given here
property measured: Activity

Below are worked cases with known answers.
INSERT INTO measurements (smiles_text, readout_value) VALUES
  ('CCN(CC)c1ccc2cc(-c3nc4ccc(OCCN5CCCCC5)cc4c(=O)[nH]3)c(=O)oc2c1', 47.65),
  ('CCN(CC)c1ccc2cc(-c3nc4ccc(OCCCN5CCOCC5)cc4c(=O)[nH]3)c(=O)oc2c1', 79.66),
  ('CCN(CC)c1ccc2cc(-c3nc4ccc(OCc5cn(CCNS(=O)(=O)c6ccc(C)cc6)nn5)cc4c(=O)[nH]3)c(=O)oc2c1', 59.27);

[1] CCN(CC)c1ccc2cc(-c3nc4ccc(O)cc4c(=O)[nH]3)c(=O)oc2c1
[2] CCN(CC)c1ccc2cc(-c3nc4ccc(OCc5cn(CCC[P+](c6ccccc6)(c6ccccc6)c6ccccc6)nn5)cc4c(=O)[nH]3)c(=O)oc2c1.[Br-]
### Prompt From the recorded data, which exceeds the other in Activity: 1 or 2 ? Lab log: write the label of the selected item as the result.
### Response 2

The reported numbers originate from ChEMBL document CHEMBL6092198.
